All figures here come from PubChem BioAssay (NCATS).

# Assay Procedure: Panc-1005 Cancer Cell Toxicity qHTS against the NCATS CANVASS Library (AID 1347349); note: nearly all actives have a fitted effect of over 60% in size
# Experimental Parameters: Panc-1005 viability, CellTiter-Glo luminescence, 72 h; series mostly up to 38.3 µM
Records with an inconclusive call do not appear. The source made the active and inactive calls. Calls come from the whole dose curve; as a rule, active = well fitted cell-killing curve with a large enough effect; inconclusive = small, poorly fitted or top-dose-only effect; inactive = flat fitted curve, though single readings scatter. Peptide text beside a SMILES is read from it. * marks the point of attachment. Hexanoyl = CCCCCC(=O)*
Classes used: active, inactive

Molecule	Group
C/C=C/c1cc2c(c(=O)o1)C(=O)[C@@H](O)[C@H](C)O2	active
O=C1c2c(O)cc(O)cc2OC(c2ccc(O)cc2)C1O (stereo not drawn)	inactive
COC1C(C)OC(OCC23C[C@@H]4[C@H](C)CC[C@H]4C4(C=O)CC2C=C(C(C)C)C34C(=O)O)[C@@H](O)[C@H]1O (stereo partly drawn)	inactive
CC(C)=CCC[C@]1(C)[C@H]2CC(=O)[C@@]3(CO3)[C@@H]1C2	inactive
C=C1CCC2C(C)(C(=O)O)CCC(CC/C(C)=C/C(=O)NC(CCC(N)=O)C(=O)O)[C@@]2(C)C1 (stereo partly drawn)	inactive
CCC(=O)N[C@@H](C[C@H](C)C(Cl)(Cl)Cl)C(=O)N1C(=O)C=C(OC)[C@@H]1CC(C)C	inactive
CC(=O)c1c(C)cc2c(c1O)C(=O)c1c(O)cc(O)cc1C2=O	inactive
C=CC(C)(C)C(=O)[C@@H](C)[C@@H]1CC[C@@](C)(C=C)O1	inactive
CC(=O)N[C@H](C)c1nc(/C=C/C=C/C(=O)CC2CC(=O)CC[C@]2(C)O)cs1 (stereo partly drawn)	inactive
CN1CC[C@]2(c3cccc4c3N[C@H]3N(C)CC[C@@]43[C@]34CCN(C)[C@H]3Nc3ccccc34)c3ccccc3N[C@H]12	active
COc1cc2oc3ccccc3c(=O)c2cc1OC	inactive
CCCCCC(=O)N[C@@H](CC(C)C)C(=O)N[C@H](C=O)CCC(=O)O (Hexanoyl-Leu-Glu-aldehyde)	inactive
C/C(=C\[C@@H](C)CC/C=C/CC/C=C/C(=O)O)[C@@H](O)[C@H](C)C(=O)CCCC1CC(=O)NC(=O)C1	inactive
COC(=O)[C@@]1(C)CCC[C@]2(C)c3cc(OC)ccc3CC[C@@H]12	inactive
C[C@@]1(CCC(=O)Nc2c(O)ccc(C(=O)O)c2O)C(=O)C=C[C@]23C[C@H]4C[C@H](O[C@@]4(C)C2)C31 (stereo partly drawn)	inactive
CC1(C)CC[C@]2(CO)CC[C@]3(C)C(=CCC4[C@@]5(C)CC[C@H](O)C(C)(C)C5CC[C@]43C)C2C1 (stereo partly drawn)	inactive
C=CC(CCCCC)C1C(=O)NC(=O)C1C(=O)C1C2C(C)CC(C(=O)O)CC2CC1(O)C(=O)/C=C/C (stereo not drawn)	inactive
CC(C)=CC[C@H]1C[C@@]2(CC=C(C)C)C(=O)[C@](CC=C(C)C)(C(=O)C(C(=O)c3ccccc3)=C2O)C1(C)C	active
